System: A498 renal
Assay: NCI-60 one-dose screen, 48 h (100 = growth as untreated, 0 = no growth, -100 = all killed)
Settings: 10 µM
Compounds without any hit were thinned out: in the full panel of roughly 83,000, 20% have a hit.
recordedEndpoint: growth (%)
Express your answer in %, writing the number without its unit.

Past entries and their recorded results:
- CNC(=O)c1ccccc1CC1(O)c2ccccc2Oc2ccccc21: 0.171
- CC(C)=NNC(N)=S: 97.8
- O=C1Cc2cc(O)ccc2O1: 92.7

Asked: State the recorded growth for this entry: `Cc1ccc(C(=O)c2ccccc2)c(C)c1`
Given back: 104

Asked: Entry under review: `CC1(C)Nc2cccc3c(N=Nc4ccc(N=Nc5ccccc5)c5ccccc45)ccc(c23)N1` . Reported growth?
Given back: 103

Asked: Consider the molecule shown here: `CCOC(=O)Nc1nn[nH]n1` What is its recorded growth?
Given back: 83.8

Asked: Name the recorded growth for CCOC(=O)C(C#N)Cc1ccccc1 (centres undefined) .
Given back: 114

Asked: Can you share its growth? I mean this molecule: `S=c1nn[nH]c2ccccc12`
Given back: 109

Asked: Which growth value belongs to `CC1=NN(c2ccccc2)C(=O)/C1=C\N1CC(=O)NC1=S` ?
Given back: 92.9
